Values from ChEMBL document CHEMBL2429818

# target or system: Nucleic Acid
# test description: Displacement of ethidium bromide from HIV TAR RNA by fluorescent intercalator displacement assay
# Assay type: nucleic-acid assay, Human immunodeficiency virus
Recorded DC50 by entry
measured metric: DC50 (nM)

{"chem smiles": "CN1CCN(c2ccc3nc(-c4ccc(OCc5cn(Cn6cc(CCCCc7cn(C[C@H]8O[C@@H](O[C@@H]9[C@@H](O)[C@H](N)C[C@H](N)[C@H]9O[C@H]9O[C@H](CN)[C@@H](O)[C@H](O)[C@H]9N)[C@H](O)[C@@H]8O[C@H]8O[C@@H](CN)[C@@H](O)[C@H](O)[C@H]8N)nn7)nn6)nn5)cc4)[nH]c3c2)CC1", "target or system": "Nucleic Acid", "measured metric": "DC50", "unit": "nM", "numeric result": 184}
{"chem smiles": "CN1CCN(c2ccc3nc(-c4ccc(OCc5cn(CCCCCCn6cc(CCCCc7cn(C[C@H]8O[C@@H](O[C@@H]9[C@@H](O)[C@H](N)C[C@H](N)[C@H]9O[C@H]9O[C@H](CN)[C@@H](O)[C@H](O)[C@H]9N)[C@H](O)[C@@H]8O[C@H]8O[C@@H](CN)[C@@H](O)[C@H](O)[C@H]8N)nn7)nn6)nn5)cc4)[nH]c3c2)CC1", "target or system": "Nucleic Acid", "measured metric": "DC50", "unit": "nM", "numeric result": 200}
{"chem smiles": "CN1CCN(c2ccc3nc(-c4ccc(OCc5cn(CCCCCCCCCCn6cc(CCCCc7cn(C[C@H]8O[C@@H](O[C@@H]9[C@@H](O)[C@H](N)C[C@H](N)[C@H]9O[C@H]9O[C@H](CN)[C@@H](O)[C@H](O)[C@H]9N)[C@H](O)[C@@H]8O[C@H]8O[C@@H](CN)[C@@H](O)[C@H](O)[C@H]8N)nn7)nn6)nn5)cc4)[nH]c3c2)CC1", "target or system": "Nucleic Acid", "measured metric": "DC50", "unit": "nM", "numeric result": 180}
